target: Bcl-2 protein (Recombinant Human Bcl-2 Protein) (Homo sapiens); construct: purchased Novus NBP2-34889; assay: Binding evaluation of mixture library compounds to Bcl-2 using AS-MS (affinity selection mass spectrometry); conditions: n = 1
Sequence (P10415 whole entry): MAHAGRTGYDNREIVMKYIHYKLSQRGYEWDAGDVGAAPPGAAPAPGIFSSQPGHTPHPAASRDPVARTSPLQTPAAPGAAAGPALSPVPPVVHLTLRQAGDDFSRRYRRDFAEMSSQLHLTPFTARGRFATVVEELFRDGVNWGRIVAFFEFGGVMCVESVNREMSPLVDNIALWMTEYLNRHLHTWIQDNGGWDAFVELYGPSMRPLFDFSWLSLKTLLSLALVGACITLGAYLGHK
RESULT TYPE: ASMS ratio (%)

Consider the reported ASMS ratio (%) for these compounds:
1) CCOc1cncc(-c2ccc(C(C)N3CCN(c4ccc(C(=O)NS(=O)(=O)C(C)(C)C)cc4)CC3)c(F)c2)c1 (stereo not shown)	0.0
2) CCOc1cncc(-c2csc(CN3CCN(c4ccc(C(=O)NS(C)(=O)=O)nn4)CC3)c2)c1	0.0
3) CCOc1cccc(-c2ccc(C(=O)N3CCN(c4ccc(C(=O)NS(=O)(=O)CCC(F)(F)F)nn4)CC3)cc2C)c1	0.0
4) CCOc1cccc(-c2cc(CN3CCN(c4ccc(C(=O)NS(=O)(=O)CCC(F)(F)F)cc4)CC3)cc(C(F)(F)F)c2)c1	0.0

(I) CCOc1cncc(-c2cc(CN3CCN(c4ccc(C(=O)NS(=O)(=O)CCC(F)(F)F)cc4)CC3)cc(C(F)(F)F)c2)c1
(II) CCOc1cccc(-c2ccccc2CCC(=O)N2CCN(c3ccc(C(=O)NS(=O)(=O)c4ccc(NCCSc5ccccc5)c(C(F)(F)F)c4)cc3)CC2)c1
QUERY: Form: Entry with minimum ASMS ratio (%) (choose one): I / II Selection: enter the item's label.
RESULT: I

(1) CCOc1cccc(-c2ccc(C(C)N3CCN(c4ccc(C(=O)NS(=O)(=O)CCC(F)(F)F)cc4)CC3)cc2)c1 (stereo not shown)
(2) CCOc1cccc(-c2cc(CN3CCN(c4ccc(C(=O)NS(=O)(=O)c5ccc(NCCSc6ccccc6)c(C(F)(F)F)c5)nn4)CC3)cc(C(F)(F)F)c2)c1
QUERY: Could you point out whether the larger ASMS ratio (%) belongs to 1 or to 2 ? Reply with the label of the item you choose.
RESULT: 2
